Ki values for the molecules below.
system: 5-hydroxytryptamine receptor 6 (Homo sapiens)
Sequence (P50406 whole entry): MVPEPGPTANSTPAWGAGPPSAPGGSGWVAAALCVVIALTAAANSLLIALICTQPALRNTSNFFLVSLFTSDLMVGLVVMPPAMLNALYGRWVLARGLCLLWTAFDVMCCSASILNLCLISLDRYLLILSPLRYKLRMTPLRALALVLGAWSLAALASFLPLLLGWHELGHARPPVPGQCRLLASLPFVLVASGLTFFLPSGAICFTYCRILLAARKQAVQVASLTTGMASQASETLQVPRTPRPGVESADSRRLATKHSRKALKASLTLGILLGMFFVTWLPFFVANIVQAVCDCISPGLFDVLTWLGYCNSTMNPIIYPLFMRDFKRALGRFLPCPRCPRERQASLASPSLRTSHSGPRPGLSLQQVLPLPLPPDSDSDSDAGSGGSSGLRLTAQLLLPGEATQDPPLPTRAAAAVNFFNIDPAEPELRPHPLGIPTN
assay_method_text: Displacement of [3H] LSD from human recombinant 5-HT6 receptor expressed in HEK293 cells measured after 1 hr by microbeta scintillation counting method
recorded_metric: Ki

- compound_string: "CCn1cncc1-c1c[nH]c2ccc(Br)cc12"
  recorded_measurement: "1.35 µM"
- compound_string: "Cn1cncc1-c1c[nH]c2ccc(C(N)=O)c(F)c12"
  recorded_measurement: "> 10 µM"
- compound_string: "CCn1cncc1-c1c[nH]c2ccc(C(F)(F)F)cc12"
  recorded_measurement: "1.38 µM"
- compound_string: "CCn1cncc1-c1c[nH]c2c(F)cc(I)cc12"
  recorded_measurement: "2.46 µM"
- compound_string: "CCn1cncc1-c1c[nH]c2ccc(Br)c(F)c12"
  recorded_measurement: "2.95 µM"
- compound_string: "CCn1cncc1-c1c[nH]c2ccc(F)cc12"
  recorded_measurement: "4.9 µM"
- compound_string: "CCn1cncc1-c1c[nH]c2ccccc12"
  recorded_measurement: "3.02 µM"
- compound_string: "COc1ccc2[nH]cc(-c3cncn3C)c2c1F"
  recorded_measurement: "3.8 µM"
- compound_string: "CCOc1ccc2[nH]cc(-c3cncn3CC)c2c1"
  recorded_measurement: "7.08 µM"
- compound_string: "CCn1cncc1-c1c[nH]c2cccc(F)c12"
  recorded_measurement: "6.46 µM"
- compound_string: "CCn1cncc1-c1c[nH]c2ccc(F)c(F)c12"
  recorded_measurement: "0.794 µM"
- compound_string: "CCn1cncc1-c1c[nH]c2ccc(OC)c(F)c12"
  recorded_measurement: "3.47 µM"
- compound_string: "CCn1cncc1-c1c[nH]c2ccc(C(N)=O)cc12"
  recorded_measurement: "7.76 µM"
- compound_string: "CCn1cncc1-c1c[nH]c2cc(F)c(Cl)cc12"
  recorded_measurement: "> 10 µM"
- compound_string: "Cn1cncc1-c1c[nH]c2ccc(F)c(F)c12"
  recorded_measurement: "0.603 µM"
- compound_string: "CCn1cncc1-c1c[nH]c2ccc(Cl)c(F)c12"
  recorded_measurement: "1.62 µM"
- compound_string: "CCn1cncc1-c1c[nH]c2cc(F)ccc12"
  recorded_measurement: "5.89 µM"
- compound_string: "CCn1cncc1-c1c[nH]c2ccc(OC)cc12"
  recorded_measurement: "6.92 µM"
- compound_string: "Cn1cncc1-c1c[nH]c2ccc(Br)c(F)c12"
  recorded_measurement: "0.794 µM"
- compound_string: "Cn1cncc1-c1c[nH]c2ccc(Cl)c(F)c12"
  recorded_measurement: "0.55 µM"
- compound_string: "Cn1cncc1-c1c[nH]c2ccc(I)c(F)c12"
  recorded_measurement: "0.245 µM"
- compound_string: "CCn1cncc1-c1c[nH]c2ccc(C(N)=O)c(F)c12"
  recorded_measurement: "> 10 µM"
- compound_string: "CCn1cncc1-c1c[nH]c2ccc(C)cc12"
  recorded_measurement: "> 10 µM"
- compound_string: "CCn1cncc1-c1c[nH]c2ccc(Cl)cc12"
  recorded_measurement: "4.17 µM"
- compound_string: "CCn1cncc1-c1c[nH]c2ccc(OC(F)(F)F)cc12"
  recorded_measurement: "3.47 µM"
- compound_string: "Cn1cncc1-c1c[nH]c2ccc(I)cc12"
  recorded_measurement: "0.407 µM"
- compound_string: "CCn1cncc1-c1c[nH]c2ccc(I)c(F)c12"
  recorded_measurement: "2.88 µM"
